The entries below come with measured Cholesterol-free values attached.
system: NCI-H292 lung cancer cells; assay: FDA drug screening, complete media vs cholesterol-free media without statin (TABLE 1); type: cell-based, human; details: NCI-H292 cells in cholesterol-free media without statin

Here's what some known entries look like.
Molecule	Readout Value
CSc1nc2cc(Cl)c(Oc3cccc(Cl)c3Cl)cc2[nH]1	1.673
CCN(CC)C(=O)c1ccc(O)c(OC)c1	1.483
Cc1c(NC(=O)c2cccnc2)c(=O)n(-c2ccccc2)n1C	1.466

Ask: For COc1ccc2c(c1)c(CC(=O)O)c(C)n2C(=O)c1ccc(Cl)cc1 , write its Cholesterol-free.
Result: 1.574
